- Test system: conscious rats
- Run Description: Determination of CNS toxicity: convulsions in conscious rats on increasing i.v. infusion
- Assay type: in vivo
- Settings: rat, in vivo

| Molecule | Subject Of Test | Unit Name | cum conv dose |
| --- | --- | --- | --- |
| Cl.FC(F)(F)c1ccccc1CCO[C@H]1CCCC[C@H]1N1CCOCC1 (racemic) | conscious rats | µmol/kg | 102 |
| Cl.OC1CCN(C2CCCC[C@@H]2OCCc2c(Cl)cccc2Cl)C1 (stereo partly drawn) [Compound 23] | conscious rats | µmol/kg | 65 |
| COc1ccc(CCO[C@H]2CCCCC2N2CC[C@@H](O)C2)cc1OC.Cl (stereo partly drawn) | conscious rats | µmol/kg | 502 |
| COc1ccc(CCOC2CCCC[C@H]2N2CCC(F)C2)cc1OC.Cl (stereo partly drawn) | conscious rats | µmol/kg | 63.33 |
| Clc1ccc(CCO[C@H]2CCCCC2N2CCOCC2)cc1Cl (stereo partly drawn) | conscious rats | µmol/kg | 118 |
| c1ccc2c(CCO[C@H]3CCCCC3N3CCOCC3)csc2c1 (stereo partly drawn) | conscious rats | µmol/kg | 65 |
| COc1cc(CCCO[C@H]2CCCCC2N2CC[C@@H](O)C2)cc(Cl)c1OC.Cl (stereo partly drawn) | conscious rats | µmol/kg | 90.9 |
| COc1ccc(CCOC2CCCC[C@H]2N2CCOCC2)cc1OC.Cl (stereo partly drawn) | conscious rats | µmol/kg | 113 |
| Brc1ccc(CCO[C@H]2CCCCC2N2CCOCC2)cc1 (stereo partly drawn) | conscious rats | µmol/kg | 91 |
